# Target: DLG4_1, P78352
# Sequence (P78352 62-152): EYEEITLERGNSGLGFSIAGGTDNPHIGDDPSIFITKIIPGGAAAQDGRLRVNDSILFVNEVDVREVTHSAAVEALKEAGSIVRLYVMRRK
# Test Name: holdup assay
# Parameters: key: below the threshold = too weak to quantify, mostly under pKd 3.1 to 4
# Test Conditions: plain residues with an end cap or a label only (N-terminal biotin on a linker: ado-ado)
Measure: pKd
Numbers only.

Known results for binders:
I have this binder here, TACCHSETVV [TGFA, P01135] , and I need its recorded pKd.
4.75

Reported pKd for KSGKQTMLVV [TRIM29, Q14134] : what is it?
3.56

Bench note: what pKd did PRAEAEDSFL [PDGFRB, P09619] show?
3.72

// lookup pKd for PAPSSGKDYV [CLDN1, O95832]
3.6

Item under review: QHKTQLQTLI [BPIFA2, Q96DR5] . Reported pKd?
4.38

Look at each binder and report its pKd.
1. ETQVTAETVI [TMEM225B, P0DP42]
2. RRRESYSTTV [EVI5, O60447]
3. TKGPRGPTRV [SAPCD1, Q5SSQ6]
4. PKRSFIESNV [TANC1, Q9C0D5]
5. PPYRHRNTVV [ERBB4, Q15303]

1. 3.6
2. 5.79
3. 4.48
4. 4.73
5. 4.88

Fill in pKd for each of the 3 binders listed.
1. LGRSTPQSEV [DGKH, Q86XP1]
2. LRSPRTPSEV [OR10G3, Q8NGC4]
3. KKMPSIESDV [GRIN2A, Q12879]

1. 3.85
2. 3.49
3. 4.71
